# target.or.system: Receptor tyrosine-protein kinase erbB-2 (Homo sapiens, UniProt P04626)
# Sequence (P04626 whole entry, the tested form may be a part): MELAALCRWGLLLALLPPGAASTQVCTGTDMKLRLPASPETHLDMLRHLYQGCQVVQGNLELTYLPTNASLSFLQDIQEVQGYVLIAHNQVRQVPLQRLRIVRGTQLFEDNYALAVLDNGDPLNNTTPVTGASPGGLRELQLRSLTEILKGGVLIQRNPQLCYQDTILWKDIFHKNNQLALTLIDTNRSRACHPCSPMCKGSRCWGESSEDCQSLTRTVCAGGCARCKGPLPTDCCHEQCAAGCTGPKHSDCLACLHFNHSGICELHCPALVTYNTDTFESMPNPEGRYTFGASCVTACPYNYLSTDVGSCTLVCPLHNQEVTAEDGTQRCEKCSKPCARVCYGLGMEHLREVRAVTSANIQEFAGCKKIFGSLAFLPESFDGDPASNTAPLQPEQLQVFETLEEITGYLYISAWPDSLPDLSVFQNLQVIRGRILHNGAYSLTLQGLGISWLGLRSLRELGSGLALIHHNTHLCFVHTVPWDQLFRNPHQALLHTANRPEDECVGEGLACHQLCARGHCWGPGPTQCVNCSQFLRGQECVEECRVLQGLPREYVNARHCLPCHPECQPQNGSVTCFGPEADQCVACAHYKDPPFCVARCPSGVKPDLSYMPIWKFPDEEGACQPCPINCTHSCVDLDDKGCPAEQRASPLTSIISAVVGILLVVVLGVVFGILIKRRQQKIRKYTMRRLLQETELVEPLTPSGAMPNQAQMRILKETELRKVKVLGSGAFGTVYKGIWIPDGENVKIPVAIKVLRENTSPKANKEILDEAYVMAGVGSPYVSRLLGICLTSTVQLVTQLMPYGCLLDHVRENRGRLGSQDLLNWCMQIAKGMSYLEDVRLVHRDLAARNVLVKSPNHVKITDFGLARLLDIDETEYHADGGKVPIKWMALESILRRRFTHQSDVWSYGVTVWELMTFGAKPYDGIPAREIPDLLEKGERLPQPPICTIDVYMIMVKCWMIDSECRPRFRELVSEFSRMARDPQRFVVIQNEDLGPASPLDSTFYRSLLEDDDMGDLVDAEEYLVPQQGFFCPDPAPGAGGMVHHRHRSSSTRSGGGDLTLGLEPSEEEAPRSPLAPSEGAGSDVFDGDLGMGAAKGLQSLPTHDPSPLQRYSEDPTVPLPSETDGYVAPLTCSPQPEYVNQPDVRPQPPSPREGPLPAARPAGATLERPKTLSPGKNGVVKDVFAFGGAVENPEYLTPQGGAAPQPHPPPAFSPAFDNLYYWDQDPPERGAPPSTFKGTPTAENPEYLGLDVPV
# experimental.protocol: Inhibition of GST-tagged human HER2 catalytic domain expressed in insect cells
experimental.endpoint: IC50 (nM)

(P) C=CC(=O)Nc1cc2c(Nc3ccc(F)c(Cl)c3)ncnc2cc1C#CC(C)(C)N1CCN(C)CC1 [AV-412 FREE BASE]
(Q) C=CC(=O)N1CCC(Oc2cc3c(Nc4ccc(Cl)c(Cl)c4F)ncnc3cc2OC)CC1 [POZIOTINIB]
Prompt line: Returns the identifier with the smallest measured IC50 among P and Q . Write the label of whichever entry you select.
Response line: Q

====

# target.or.system: Receptor tyrosine-protein kinase erbB-2 (Homo sapiens)
# experimental.protocol: Inhibition of HER2 (unknown origin)
experimental.endpoint: pIC50
Scale: pIC50 equals -log10([C]), with [C] in mol/L.

Prompt line: Record CC(C)(O)CC(=O)NCCc1ccc2ncnc(Nc3ccc(Oc4cccc(C(F)(F)F)c4)c(Cl)c3)c2c1 : what is its pIC50 with Receptor tyrosine-protein kinase erbB-2 (Homo sapiens)?
Response line: 7.72

====

# target.or.system: Epidermal growth factor receptor (Homo sapiens, UniProt P00533, L858R)
# Sequence (P00533 25-1210 L858R limits assumed): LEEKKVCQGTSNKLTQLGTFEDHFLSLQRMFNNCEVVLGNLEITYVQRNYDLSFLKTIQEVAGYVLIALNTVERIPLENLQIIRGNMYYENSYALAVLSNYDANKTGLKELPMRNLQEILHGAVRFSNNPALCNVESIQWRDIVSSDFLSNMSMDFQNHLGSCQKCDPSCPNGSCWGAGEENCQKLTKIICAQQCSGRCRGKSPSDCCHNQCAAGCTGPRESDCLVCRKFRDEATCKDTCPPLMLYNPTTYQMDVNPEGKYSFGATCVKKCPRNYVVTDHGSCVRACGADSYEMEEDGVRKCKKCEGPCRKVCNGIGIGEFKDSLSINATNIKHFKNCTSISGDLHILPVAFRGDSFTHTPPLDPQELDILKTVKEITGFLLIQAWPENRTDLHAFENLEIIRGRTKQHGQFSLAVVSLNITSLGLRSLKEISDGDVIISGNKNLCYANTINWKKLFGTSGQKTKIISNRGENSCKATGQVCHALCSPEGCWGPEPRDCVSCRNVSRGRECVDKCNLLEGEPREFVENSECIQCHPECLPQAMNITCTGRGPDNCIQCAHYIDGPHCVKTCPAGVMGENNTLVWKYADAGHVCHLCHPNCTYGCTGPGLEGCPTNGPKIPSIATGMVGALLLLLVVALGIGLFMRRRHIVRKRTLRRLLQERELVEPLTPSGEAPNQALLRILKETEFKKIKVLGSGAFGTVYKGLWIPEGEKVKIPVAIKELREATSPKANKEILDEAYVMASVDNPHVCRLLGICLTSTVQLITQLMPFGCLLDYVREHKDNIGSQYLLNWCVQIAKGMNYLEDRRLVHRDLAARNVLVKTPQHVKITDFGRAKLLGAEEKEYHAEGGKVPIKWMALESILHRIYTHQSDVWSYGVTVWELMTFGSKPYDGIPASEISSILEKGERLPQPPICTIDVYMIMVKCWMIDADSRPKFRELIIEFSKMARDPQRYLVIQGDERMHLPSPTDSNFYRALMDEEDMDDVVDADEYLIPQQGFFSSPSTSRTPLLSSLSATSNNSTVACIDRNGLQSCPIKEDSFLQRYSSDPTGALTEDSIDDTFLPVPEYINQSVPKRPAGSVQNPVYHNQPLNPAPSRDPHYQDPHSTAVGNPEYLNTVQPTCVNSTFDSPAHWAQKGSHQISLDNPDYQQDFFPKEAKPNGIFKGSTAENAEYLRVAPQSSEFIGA
# experimental.protocol: Inhibition of human EGFR L858R mutant expressed in mouse Ba/F3 cells
experimental.endpoint: IC50 (nM)
Kindly provide the numeric value in nM only, without the unit symbol.

Prompt line: Requested read-out: IC50. Entry: C=CC(=O)Nc1cc2c(Nc3ccc(F)c(Cl)c3)ncnc2cc1C#CC(C)(C)N1CCN(C)CC1 [AV-412 FREE BASE]
Response line: 0.51

====

# Tested on: NCI-N87
# experimental.protocol: Antiproliferative activity against human NCI-N87 cells expressing wild type EGFR and HER2 incubated for 72 hrs by MTS assay
# Type: functional, cell-based
# condition.summary: NCI-N87, 72 h
experimental.endpoint: IC50 (µM)
Kindly provide the numeric value in µM only, without the unit symbol.

Prompt line: Requested read-out: IC50. Entry: CCOc1cc2ncnc(Nc3ccc(OCc4cccc(F)c4)c(Cl)c3)c2cc1NC(=O)/C=C/[C@@H]1CCCN1
Response line: 0.047

====

# target.or.system: Epidermal growth factor receptor (Homo sapiens, UniProt P00533, T790M)
# Sequence (P00533 25-1210 T790M limits assumed): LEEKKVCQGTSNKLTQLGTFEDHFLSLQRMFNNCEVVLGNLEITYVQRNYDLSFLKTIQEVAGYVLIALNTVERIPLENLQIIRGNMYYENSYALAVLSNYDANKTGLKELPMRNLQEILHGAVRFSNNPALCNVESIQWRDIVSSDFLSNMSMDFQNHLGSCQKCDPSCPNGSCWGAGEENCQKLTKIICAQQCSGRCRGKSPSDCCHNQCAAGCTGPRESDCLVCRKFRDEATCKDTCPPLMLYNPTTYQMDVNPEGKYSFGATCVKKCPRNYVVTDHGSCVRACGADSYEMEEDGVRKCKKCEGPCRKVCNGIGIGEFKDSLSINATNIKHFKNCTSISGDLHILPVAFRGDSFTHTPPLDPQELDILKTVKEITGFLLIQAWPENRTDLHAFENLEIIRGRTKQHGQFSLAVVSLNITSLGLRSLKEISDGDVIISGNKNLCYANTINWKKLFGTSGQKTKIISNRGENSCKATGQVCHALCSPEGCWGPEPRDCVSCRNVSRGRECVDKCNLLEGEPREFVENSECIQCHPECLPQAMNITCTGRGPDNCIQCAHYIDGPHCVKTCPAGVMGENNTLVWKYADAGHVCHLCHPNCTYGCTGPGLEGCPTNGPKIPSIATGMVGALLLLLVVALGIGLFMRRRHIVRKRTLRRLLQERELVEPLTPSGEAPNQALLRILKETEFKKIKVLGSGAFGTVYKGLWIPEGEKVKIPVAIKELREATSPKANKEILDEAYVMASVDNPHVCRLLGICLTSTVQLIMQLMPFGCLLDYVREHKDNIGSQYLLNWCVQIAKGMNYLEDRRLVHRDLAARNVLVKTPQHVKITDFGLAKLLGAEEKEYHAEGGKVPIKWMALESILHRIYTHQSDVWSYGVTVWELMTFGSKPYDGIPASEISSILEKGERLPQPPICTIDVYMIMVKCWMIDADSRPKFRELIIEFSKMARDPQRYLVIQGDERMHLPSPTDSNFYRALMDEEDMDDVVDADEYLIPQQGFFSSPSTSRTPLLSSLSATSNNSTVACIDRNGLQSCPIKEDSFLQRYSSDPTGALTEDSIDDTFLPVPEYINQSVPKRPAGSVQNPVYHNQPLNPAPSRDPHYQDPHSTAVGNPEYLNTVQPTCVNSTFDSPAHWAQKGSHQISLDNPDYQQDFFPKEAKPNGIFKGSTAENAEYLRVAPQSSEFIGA
# experimental.protocol: Inhibition of human EGFR T790M mutant expressed in mouse Ba/F3 cells
experimental.endpoint: IC50 (pM)
Kindly provide the numeric value in pM only, without the unit symbol.

Prompt line: Record C=CC(=O)Nc1cc2c(Nc3ccc(F)c(Cl)c3)ncnc2cc1C#CC(C)(C)N1CCN(C)CC1 [AV-412 FREE BASE] : what is its IC50 with Epidermal growth factor receptor (Homo sapiens, UniProt P00533, T790M)?
Response line: 790

====

# target.or.system: Epidermal growth factor receptor (Homo sapiens, UniProt P00533, T790M/L858R)
# Sequence (P00533 25-1210 T790M/L858R limits assumed): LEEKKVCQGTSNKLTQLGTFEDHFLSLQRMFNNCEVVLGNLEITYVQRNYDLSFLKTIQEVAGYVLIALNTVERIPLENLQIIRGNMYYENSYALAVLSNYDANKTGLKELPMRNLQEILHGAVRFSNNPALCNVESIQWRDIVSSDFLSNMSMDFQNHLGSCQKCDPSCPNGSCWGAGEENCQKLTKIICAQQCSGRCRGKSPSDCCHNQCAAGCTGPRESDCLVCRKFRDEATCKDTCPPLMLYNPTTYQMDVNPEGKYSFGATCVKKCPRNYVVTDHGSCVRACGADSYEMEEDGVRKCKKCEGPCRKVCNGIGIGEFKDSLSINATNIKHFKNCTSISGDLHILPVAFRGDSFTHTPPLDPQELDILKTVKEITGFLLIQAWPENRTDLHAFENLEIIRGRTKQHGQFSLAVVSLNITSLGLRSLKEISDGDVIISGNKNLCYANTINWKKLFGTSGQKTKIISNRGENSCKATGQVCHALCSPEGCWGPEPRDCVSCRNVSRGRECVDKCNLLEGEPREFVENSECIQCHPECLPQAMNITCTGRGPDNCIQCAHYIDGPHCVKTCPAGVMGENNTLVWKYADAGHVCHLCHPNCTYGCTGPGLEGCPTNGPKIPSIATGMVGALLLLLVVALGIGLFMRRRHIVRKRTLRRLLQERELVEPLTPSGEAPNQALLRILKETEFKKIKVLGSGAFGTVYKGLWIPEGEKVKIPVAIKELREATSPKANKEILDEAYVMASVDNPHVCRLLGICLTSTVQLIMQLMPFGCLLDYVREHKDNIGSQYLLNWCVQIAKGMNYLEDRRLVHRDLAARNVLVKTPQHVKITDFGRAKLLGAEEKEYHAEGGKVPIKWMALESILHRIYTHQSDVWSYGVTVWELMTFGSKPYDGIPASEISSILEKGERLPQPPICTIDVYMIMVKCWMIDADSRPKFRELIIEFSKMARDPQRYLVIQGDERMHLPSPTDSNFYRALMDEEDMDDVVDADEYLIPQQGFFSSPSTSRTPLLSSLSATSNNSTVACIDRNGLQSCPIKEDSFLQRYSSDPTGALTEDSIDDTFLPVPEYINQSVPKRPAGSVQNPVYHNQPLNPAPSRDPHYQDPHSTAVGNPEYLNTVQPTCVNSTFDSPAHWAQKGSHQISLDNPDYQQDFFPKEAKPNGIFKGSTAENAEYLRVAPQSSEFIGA
# experimental.protocol: Inhibition of EGFR T790M/L858R mutant (unknown origin)
experimental.endpoint: pIC50
Scale: pIC50 equals -log10([C]), with [C] in mol/L.

Prompt line: Record CC(C)(O)CC(=O)NCCc1ccc2ncnc(Nc3ccc(Oc4cccc(C(F)(F)F)c4)c(Cl)c3)c2c1 : what is its pIC50 with Epidermal growth factor receptor (Homo sapiens, UniProt P00533, T790M/L858R)?
Response line: 7.48

====

# experimental.protocol: Antiproliferative activity against human HS27 cells expressing wild type HER2 incubated for 72 hrs by MTS assay
# Type: cell-based
experimental.endpoint: GI50 at 72 h (µM)
Kindly provide the numeric value in µM only, without the unit symbol.

Prompt line: Requested read-out: GI50 at 72 h. Entry: C=CC(=O)N1CCC(Oc2cc3c(Nc4ccc(Cl)c(Cl)c4F)ncnc3cc2OC)CC1
Response line: 3.83
